B1: DLC1 (parent)
chain: RDAIEALCRRLNTLNKCAVMKLEI

- Variants of: B1
- ASSAY_NOTES: protein stability index of a GFP-peptide fusion (GPS, HEK-293T) (PSI 1-6); higher = more stable;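 also: lentivirally expressed fusions sorted by FACS into six bins by GFP to DsRed ratio, PSI derived from sequencing read proportions per bin multiplied by bin number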
- ASSAY_SETUP: c terminus: a fixed tail appended
Some variants, each annotated with its measured protein stability index.

{"columns": ["MUTATION_DESCRIPTOR", "protein stability index"],
 "data": [
  ["L14H", 2.74],
  ["R1G", 2.35],
  ["C17K", 2.36],
  ["T13C", 2.26],
  ["R1I", 2.9],
  ["C8T", 1.46],
  ["L7Q", 2.41],
  ["R10S", 3.43],
  ["T13H", 2.02],
  ["R10C", 3.31],
  ["R1M", 3.94],
  ["L11R", 1.89],
  ["L11F", 2.72],
  ["L11C", 3.62],
  ["I4D", 2.67],
  ["A6L", 3.11],
  ["A3I", 2.5],
  ["R9I", 1.79],
  ["L22M", 3.06],
  ["M20E", 1.49],
  ["N12C", 3.35],
  ["R1D", 2.4],
  ["N12D", 4.53],
  ["I4T", 2.24],
  ["K21G", 1.97],
  ["A6T", 2.35],
  ["E5M", 3.42],
  ["I4V", 3.39],
  ["L7A", 2.37],
  ["N15L", 3.76],
  ["L7E", 1.02],
  ["R1Q", 3.23],
  ["N12T", 2.2],
  ["D2W", 4.44],
  ["I4A", 1.76],
  ["R10Q", 3.82],
  ["L14W", 2.22],
  ["R10T", 3.17],
  ["R10I", 4.62],
  ["L7C", 1.97],
  ["R10L", 2.43],
  ["L14P", 2.09],
  ["I24M", 2.39],
  ["R1V", 3.38],
  ["L22S", 1.45],
  ["E5R", 2.97],
  ["N15V", 3.72],
  ["C17T", 3.57],
  ["E23I", 1.47],
  ["N12S", 1.77],
  ["K16V", 2.29],
  ["N15A", 3.2],
  ["E5W", 2.13],
  ["A18C", 2.83],
  ["R10V", 1.86],
  ["N15I", 3.36],
  ["I24Q", 1.75],
  ["C8K", 1.84],
  ["A18R", 1.07],
  ["A3V", 3.3],
  ["R10F", 1.86],
  ["R9N", 3.68],
  ["R10A", 2.67],
  ["L22E", 1.93],
  ["A6F", 3.71],
  ["I24N", 1.63],
  ["E23G", 2.23],
  ["D2G", 3.23],
  ["A18W", 2.66],
  ["E5Y", 2.23],
  ["V19Y", 2.76],
  ["C17N", 1.83],
  ["R9Q", 4.01],
  ["C17Y", 3.7],
  ["C17P", 1.07],
  ["K16T", 2.71],
  ["N15P", 1.75],
  ["E23N", 3.12],
  ["R9T", 2.37],
  ["V19I", 1.67],
  ["I24P", 1.71],
  ["E5P", 3.06],
  ["A18L", 2.58],
  ["E5V", 1.97],
  ["K21A", 2.6],
  ["D2E", 3.12],
  ["N12L", 2.99],
  ["R9V", 2.69],
  ["N15F", 3.09],
  ["A6E", 1.64],
  ["R10N", 4.43]
]}
